SYSTEM TESTED: Thymidine kinase, cytosolic (Rattus norvegicus, UniProt P27158)
Sequence (P27158 whole entry): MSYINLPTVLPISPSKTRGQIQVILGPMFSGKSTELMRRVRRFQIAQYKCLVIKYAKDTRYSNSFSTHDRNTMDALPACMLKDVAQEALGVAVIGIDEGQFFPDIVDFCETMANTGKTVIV
PROCEDURE SUMMARY: Competitive inhibition against rat cytoplasmic Thymidine kinase
Give measured pKi for each item. Keep answers brief.
Scale: pKi equals -log10([C]), with [C] in mol/L.

Form: Entry = Nc1cn([C@H]2C[C@H](O)[C@@H](CO)O2)c(=O)[nH]c1=O | System = Thymidine kinase, cytosolic (Rattus norvegicus, UniProt P27158) | pKi = ____
3.43

Item: CCNCC1OC(n2cc(C)c(=O)[nH]c2=O)CC1O (configuration not stated)
4.40

Item: Cc1cn([C@H]2CC[C@@H](CO)O2)c(=O)[nH]c1=O
3.40

Item: CCCCCCNCC1OC(n2cc(C)c(=O)[nH]c2=O)CC1O (configuration not stated)
4.46

Item: CCSC1CC(n2cc(C)c(=O)[nH]c2=O)OC1CO (configuration not stated)
4.62

Item: CCCCCn1c(=O)c(C)cn([C@H]2C[C@H](O)[C@@H](CO)O2)c1=O
4.44

Item: Nc1nc(=O)n([C@H]2C[C@H](O)[C@@H](CO)O2)cc1I
1.94
